# assay.overview: growth inhibition, single agent or in combination, cell-based, chromothripsis tumors, cisplatin or BGB combos (AID 1671449);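 also: cells exposed for 96 hours; 0% = vehicle DMSO and 100% = killing by high DMSO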
# setup.conditions: LFS_MB_P medulloblastoma cells, measured here: combination with cisplatin, at 5 µM, stronger effect = higher value
Assign a class from recorded inhibition; defined classes: group 1 = under -30%, group 2 = from -30% up to 60%, group 3 = 60% and over

[[record]]
line_notation = "C=C1[C@H](CO)[C@@H](O)C[C@@H]1n1cnc2c(=O)[nH]c(N)nc21"
assigned_category = "group 2"

[[record]]
line_notation = "CN(C)c1ccc(C(=O)NCCCCCCC(=O)NO)cc1"
assigned_category = "group 3"

[[record]]
line_notation = "CO[C@H]1/C=C/O[C@@]2(C)Oc3c(C)c(O)c4c(O)c(c(/C=N\\N5CCN(C6CCCC6)CC5)c(O)c4c3C2=O)NC(=O)/C(C)=C\\C=C\\[C@H](C)[C@H](O)[C@@H](C)[C@@H](O)[C@@H](C)[C@H](OC(C)=O)[C@@H]1C"
assigned_category = "group 2"

[[record]]
line_notation = "COc1ccc(C(=O)C2CCN(CC(=O)N(Cc3nc4c(c(=O)[nH]3)COCC4)CC3CC3)CC2)cc1"
assigned_category = "group 1"


Prompt: Entry Nc1ncnc2c1c(-c1cnc3[nH]ccc3c1)nn2C1CCCC1 belongs to which category?
Response: group 3

Prompt: Where would O=C(COc1cccc2c(=O)[nH]ccc12)c1ccccc1 land among the classes by reported inhibition?
Response: group 1

Prompt: Tag the class for c1cc(Nc2cc(C3CC3)[nH]n2)nc(Nc2ccc3nc[nH]c3c2)n1
Response: group 3

====

# assay.overview: drug combination growth inhibition, ovarian cancer – cell-based, oncology-focused library, rucaparib conditional, profiling panel (AID 1508598)
# setup.conditions: patient-derived ovarian cancer cells, CellTiter-Glo viability, 144 h; at 1.25 µM; OCI-P5x cells; without rucaparib
Calls of active or inactive are those of the source.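 Rule for the calls: active = normalized viability below 100% at a tested concentration; inactive = the rest.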
Allowed answers: YES for active, NO for inactive

Look over these answered cases.
[[record]]
line_notation = "Nc1ccccc1NC(=O)c1ccc(CNc2nccc(-c3cccnc3)n2)cc1"
assigned_category = "YES"

[[record]]
line_notation = "C[C@@H](Oc1cc(-n2cnc3ccc(CN4CCN(C)CC4)cc32)sc1C(N)=O)c1ccccc1C(F)(F)F"
assigned_category = "YES"

[[record]]
line_notation = "CCN(CC)CCCCNc1ncc2cc(-c3cc(OC)cc(OC)c3)c(NC(=O)NC(C)(C)C)nc2n1"
assigned_category = "NO"

[[record]]
line_notation = "C=CC(=O)Nc1cccc(Nc2nc(Nc3ccc(NC4CN(CCF)C4)cc3OC)ncc2C(F)(F)F)c1"
assigned_category = "YES"


Prompt: Test call, this compound: COc1ccc(S(=O)(=O)Nc2cccnc2Nc2ccc(O)cc2)cc1
Response: YES

Prompt: Field: outcome | Entry: CC(C)OC(=O)C1=CN(C(=O)c2ccc(F)c(F)c2)CC(C)(C)c2c1[nH]c1ccccc21
Response: NO

Prompt: State the result this test recorded for O=C(NC1CCNCC1)c1[nH]ncc1NC(=O)c1c(Cl)cccc1Cl .
Response: YES

Prompt: Returns: the outcome recorded for Cc1cc(Nc2cc(N3CCN(C)CC3)nc(/C=C/c3ccccc3)n2)n[nH]1 in this assay.
Response: YES

Prompt: Hello, I am checking results. What call was entered for Cc1ccc([C@@H]2O[C@H](CO)[C@@H](O)[C@H](O)[C@H]2O)cc1Cc1ccc(-c2ccc(F)cc2)s1 ?
Response: NO

====

# assay.overview: drug combination growth inhibition, ovarian cancer – cell-based, oncology-focused library, rucaparib conditional, profiling panel (AID 1508598)
# setup.conditions: patient-derived ovarian cancer cells, CellTiter-Glo viability, 144 h; at 0.00122 µM; OCI-P5x cells; with rucaparib 20 µM; stronger effect = lower value; 100% = cells with rucaparib alone
value.kind: viability (%)
Provide the reading as a plain figure in %.

Worked cases, viability given:
[[record]]
compound = "COc1ccc(C2=NC(c3ccc(Cl)cc3)C(c3ccc(Cl)cc3)N2C(=O)N2CCNC(=O)C2)c(OC(C)C)c1 (configuration not stated)"
recorded_number = 104

[[record]]
compound = "CN(C)CC[C@H](CSc1ccccc1)Nc1ccc(S(=O)(=O)NC(=O)c2ccc(N3CCN(Cc4ccccc4-c4ccc(Cl)cc4)CC3)cc2)cc1[N+](=O)[O-]"
recorded_number = 135


Prompt: Endpoint output: viability of CNC(=O)c1cc(Oc2ccc(NC(=O)Nc3ccc(Cl)c(C(F)(F)F)c3)c(F)c2)ccn1 . Value?
Response: 109

Prompt: Given the entry CNC(=O)c1ccc(N2C(=S)N(c3ccc(C#N)c(C(F)(F)F)c3)C(=O)C2(C)C)cc1F , report its measured viability.
Response: 91.6

Prompt: Given the entry CNc1nc(-c2ccc3c(N)n[nH]c3c2)cc(N2C[C@@H](C(=O)NC3CCCCC3)CC[C@H]2C)n1 , report its measured viability.
Response: 97.7

Prompt: # lookup: viability of CC(C)C[C@H](NC(=O)CNC(=O)c1cc(Cl)ccc1Cl)B1OC(=O)CC(CC(=O)O)(C(=O)O)O1 (some centres not stated)
Response: 111

Prompt: Form field: reported viability of C[C@@H](Oc1cc(-n2cnc3ccc(CN4CCN(C)CC4)cc32)sc1C(N)=O)c1ccccc1C(F)(F)F
Response: 73.8

Prompt: Which measured viability value corresponds to C#CC[C@H](c1nc2cc(Cl)ccc2c(=O)n1Nc1ccccc1)N(CCCN)C(=O)c1cccc(Cl)c1F ?
Response: 109

Prompt: Fill in: viability of CCCCc1nc2cc(/C=C/C(=O)NO)ccc2n1CCN(CC)CC is ___
Response: 98.6

Prompt: Given Cn1cnc2c(F)c(Nc3ccc(Br)cc3Cl)c(C(=O)NOCCO)cc21 , state its recorded viability.
Response: 81.4

Prompt: GET /values?readout=viability&item= CNC(=O)c1ccc(C)c(-n2c(C)cc(OCc3ccc(F)cc3F)c(Br)c2=O)c1
Response: 107

Prompt: Give its viability value. Item: CC1(C)CNc2cc(NC(=O)c3cccnc3NCc3ccncc3)ccc21
Response: 134

====

Quick reference: viability of the listed items.
# assay.overview: drug combination growth inhibition, ovarian cancer – cell-based, oncology-focused library, rucaparib conditional, profiling panel (AID 1508598)
# setup.conditions: patient-derived ovarian cancer cells, CellTiter-Glo viability, 144 h; at 0.0781 µM; OCI-P5x cells; without rucaparib; stronger effect = lower value
Expressed in %, but write only the number.

[[record]]
compound = "C#Cc1cccc(Nc2ncnc3cc(OCCOC)c(OCCO)cc23)c1"
value_kind = "viability"
unit_label = "%"
recorded_number = 106


Prompt: Look at this compound and give its reported viability. CCN(CCO)CCCOc1ccc2c(Nc3cc(CC(=O)Nc4cccc(F)c4)[nH]n3)ncnc2c1
Response: 80.5

Prompt: For the compound Cc1cnc(-c2cnc(NCCNc3ccc(C#N)cn3)nc2-c2ccc(Cl)cc2Cl)[nH]1 , what viability is on record?
Response: 99.7

Prompt: Data request, read-out viability, for CC1COC2(CCN(c3nc(=O)c4cc(C(F)(F)F)cc([N+](=O)[O-])c4s3)CC2)O1 (centres undefined)
Response: 103

Prompt: May I ask what viability has been recorded for CCNC(=O)c1noc(-c2cc(C(C)C)c(O)cc2O)c1-c1ccc(CN2CCOCC2)cc1 ?
Response: 4.47

Prompt: Endpoint output: viability of CCN1CCN(Cc2ccc(-c3cc4c(N[C@H](C)c5ccccc5)ncnc4[nH]3)cc2)CC1 . Value?
Response: 123

Prompt: So what's the measured viability for this one? COc1cc(OC2CCN(C)CC2)ccc1Nc1ncc2c(n1)n(C1CCCC1)c(=O)n2C
Response: 110

Prompt: Which value of viability has been reported for CN1CCN(CCOc2cc(OC3CCOCC3)c3c(Nc4c(Cl)ccc5c4OCO5)ncnc3c2)CC1 in the records?
Response: 83

Prompt: What value of viability has been reported for the following compound? Cc1ccc(-c2csc(NC(=O)c3ccccc3)n2)c(C)c1
Response: 103

====

# assay.overview: viability loss with induced miR-34 in A549 – imaging, A549 dox-inducible miR-34, nuclei and caspase counts, primary screen (AID 1347080)
# setup.conditions: A549 miR-34 inducible, Hoechst nuclei count, 48 h; measured here: total cells without miR-34 induction
# Lookup of reported cell count keyed by entry
Form: value (number only, do not type unit).

Some compounds with known cell count results, for comparison:
[[record]]
compound = "CCc1cc(C(C)=O)c(O)cc1OCCCCCC(C)(C)c1nn[nH]n1"
value_kind = "cell count"
recorded_number = 7920

[[record]]
compound = "Cc1cc(Cn2cnc3c2C[C@@H](C(=O)O)N(C(=O)C(c2ccccc2)c2ccccc2)C3)ccc1N(C)C"
value_kind = "cell count"
recorded_number = 10100

[[record]]
compound = "CCCCC[C@H](O)/C=C/[C@@H]1C(C/C=C\\CCCCN(C)C)[C@@H](O)C[C@H]1O (some centres not stated)"
value_kind = "cell count"
recorded_number = 5940

[[record]]
compound = "COc1[nH]c2ccc(F)cc2c1C(=O)OCC1CCN(CCNS(C)(=O)=O)CC1"
value_kind = "cell count"
recorded_number = 8880

[[record]]
compound = "COC(=O)c1ccc2c(C(=Nc3ccc(N(C)C(=O)CN4CCN(C)CC4)cc3)c3ccccc3)c(O)[nH]c2c1"
value_kind = "cell count"
recorded_number = 6370


Prompt: Bench note: what cell count did Cc1cc2c(F)c(Oc3ncnn4cc(OCC(C)OC(=O)C(C)N)c(C)c34)ccc2[nH]1 (configuration not stated) show?
Response: 4460

Prompt: // lookup cell count for Cc1ncc(-c2ccnc(Nc3ccc(S(C)(=O)=O)cc3)n2)n1C(C)C
Response: 1790

Prompt: What value of cell count has been reported for the following compound? CCCCCCCCCCCCCCCC(=O)OCC
Response: 5950

Prompt: // returns reported cell count for input CC1=C(C(=O)Nc2cc3cn[nH]c3cc2F)C(c2ccc(C(F)(F)F)cc2)CC(=O)N1 (configuration not stated)
Response: 5040

Prompt: Return reported cell count; argument: CCCOCCCCCCCCCC(=O)O
Response: 6040

Prompt: Which cell count is listed for CC[N+](C)(CC)CC(=O)Nc1c(C)cccc1C ?
Response: 9270

Prompt: I am curious: what cell count value has been reported for CC(C)c1ccccc1Cc1cc(C(=O)Nc2ccc(S(=O)(=O)c3ccccc3C(C)(C)C)cc2)c(O)c(O)c1O ?
Response: 2260

Prompt: Can you share its cell count? I mean this compound: CN1CCN(C(=O)c2nc3ccc(Cl)cc3[nH]2)CC1
Response: 9780

Prompt: Reported cell count for CCOC(=O)C1=C(C)NC(c2ccccc2)=C(C(=O)OCc2ccc([N+](=O)[O-])cc2)C1C#Cc1ccccc1 (configuration not stated) : what is it?
Response: 8560

Prompt: Any idea what its cell count is? The compound is N[C@@H](Cc1cc(CP(=O)(O)O)cc(-c2ccccc2Cl)c1)C(=O)O
Response: 9670

Prompt: Need cell count, item C=C1C(=O)O[C@@H]2/C=C(\C)CC/C=C(\C)CC[C@@H]12
Response: 7810

Prompt: Would you mind telling me what cell count value was observed for CCCCC/C=C\C/C=C\C/C=C\CCCCCCC(=O)OC ?
Response: 5790

Prompt: Request the reported cell count associated with CCCCCCCCCCCCCCCCOC[C@@H](O)COP(=O)(O)O
Response: 6070

Prompt: Please give the measured cell count for this compound: COc1cc2c(cc1OC)[C@@H]1Cc3ccc(OC)c(OC)c3CN1CC2
Response: 10200

These entries and their values trace back to PubChem BioAssay.
